The reported measurements were obtained from patent US7659277B2.

# Subject Of Test: POSH (Homo sapiens)
# Construct: GST-POSH lot NB81/p.118 3.6 mg/ml; fused on or other part: GST tag, used for detection with anti-GST XL665
# Sequence (Q7Z6J0 1-269 limits assumed): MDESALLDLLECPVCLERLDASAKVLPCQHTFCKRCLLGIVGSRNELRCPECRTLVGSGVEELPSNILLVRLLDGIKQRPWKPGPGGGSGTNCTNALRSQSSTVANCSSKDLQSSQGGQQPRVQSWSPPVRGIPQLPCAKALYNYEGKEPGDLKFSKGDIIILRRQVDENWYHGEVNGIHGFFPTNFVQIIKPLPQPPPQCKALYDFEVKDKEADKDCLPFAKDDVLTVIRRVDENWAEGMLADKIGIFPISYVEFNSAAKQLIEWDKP
# Assay Notes: IC50 assay procedure: GST-POSH auto-ubiquitination, homogeneous time-resolved fluorescence (Ub-cryptate / anti-GST XL665)
# Assay type: biochemical
# Cond: ubiquitin ligase activity of POSH; GST-POSH 33 nM, 30 min preincubation
Experimental Readout: pIC50
Value format note: pIC50 is -log10 of concentration (mol/L); just state the number.

Q. Which pIC50 value is on record for Cc1c(C(=O)/C=C/c2ccccc2)c2cc(O)ccc2n1C ?
A. 6.40

Q. Entry COc1ccccc1N1C(=O)NC(=O)/C(=C\C=C\c2ccccc2)C1=O please
A. 6.00

Q. Can you handle O=C1/C(=C\c2cc(Cl)ccc2O)Sc2ccccc21 next?
A. 6.19

Q. Same again, this time with COC(=O)C1=C(C(=O)OC)SC(=C2C(=S)C(C)(C)N(C(C)=O)c3cc(C)ccc32)S1
A. 5.82

Q. Quick one: O=C1N=C(c2ccccc2)S/C1=C/c1ccc(-c2cccc([N+](=O)[O-])c2)o1
A. 6.00

Q. Again, but for COc1ccc(Nc2ccc(O)c3c2C(=O)c2ccccc2C3=O)cc1
A. 6.15

Q. // query: CN(C)c1ccc(/C=C2\SC(=S)N(C3CCS(=O)(=O)C3)C2=O)cc1 (stereo not shown)
A. 6.22

Q. Here is the next molecule: O=C(Nc1cccc2c(NC(=O)C3C4CCCCC43)cccc12)C1C2CCCCC21 (stereo not shown)
A. 6.22

Q. Repeat with O=[N+]([O-])c1ccc(CN2CCN(c3cccc(Cl)c3)CC2)o1
A. 6.30

Q. Moving on to the next molecule: O=[N+]([O-])c1ccc(-c2ccc(/N=C/c3c(O)ccc4ccccc34)cc2)cc1
A. 6.00
